Target: VP4 of rotavirus strain Wa (G1P[8]) (human rotavirus, UniProt P11193 1-775)
Sequence (P11193 whole entry): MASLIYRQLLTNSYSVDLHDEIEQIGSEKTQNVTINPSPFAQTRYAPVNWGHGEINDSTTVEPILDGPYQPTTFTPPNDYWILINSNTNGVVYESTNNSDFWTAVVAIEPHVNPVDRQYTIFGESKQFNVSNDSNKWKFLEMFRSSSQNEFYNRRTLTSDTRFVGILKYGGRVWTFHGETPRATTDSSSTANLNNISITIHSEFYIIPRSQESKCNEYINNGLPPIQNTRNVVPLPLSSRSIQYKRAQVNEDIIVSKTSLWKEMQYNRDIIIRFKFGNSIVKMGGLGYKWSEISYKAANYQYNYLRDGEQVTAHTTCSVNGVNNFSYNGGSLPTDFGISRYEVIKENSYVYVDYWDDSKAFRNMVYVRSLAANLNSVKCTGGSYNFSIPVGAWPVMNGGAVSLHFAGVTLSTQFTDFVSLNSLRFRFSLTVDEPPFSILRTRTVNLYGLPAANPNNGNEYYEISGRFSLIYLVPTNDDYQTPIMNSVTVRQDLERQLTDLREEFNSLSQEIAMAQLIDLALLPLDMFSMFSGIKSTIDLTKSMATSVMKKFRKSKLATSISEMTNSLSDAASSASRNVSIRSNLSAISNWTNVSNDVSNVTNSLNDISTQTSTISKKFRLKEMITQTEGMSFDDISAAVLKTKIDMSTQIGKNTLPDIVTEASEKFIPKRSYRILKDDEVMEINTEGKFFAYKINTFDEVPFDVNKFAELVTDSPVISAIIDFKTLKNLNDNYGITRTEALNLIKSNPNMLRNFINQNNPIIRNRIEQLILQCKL
Assay: cell-based or functional assay
observation type: minimum neutralizing concentration (ng/mL)

binder	measurement units	experimental result
mAb #30 (antibody, V domains shown, also called mAb ID: 30; Mab No. 30) VH: QVQLVQSGAEVKKPGASVTVSCKASGYAFTSFYLHWVRQAPGQGLEWMGIINPSDGRTRYAQKFQGRVTMTSDTSTNTVYVELSSLRSEDTAIYYCARGAIGNYNAREALDVWGRGTTVTVSS VL: EIVMTQSPATLSVSPGESATLSCRASQSINSNLAWYQQKPGQAPRLLIFSASSRATGIPARFSGSGSGTEFTLTISSLQSDDFAVYYCQQYNIWPPEHTFGQGTRLQIK	ng/mL	0.6
mAb #49 (antibody, V domains shown, also called mAb ID: 49; Mab No. 49) VH: DVQLVESGGGLVQPGGSVRLSCSASRFTFSNYAMYWVRQAPGKGLEYVSSISSDGGSTYYAESVKGRFTISRDNSKNTLYLQMRSLRAEDAAVYYCVTDVLRLPYSTGWSPGDFIYWGQGTLVTVSS VL: DIQMTQSPSILYASVGDRVTITCRASQSVSSWLAWYQQKPGKVPKLLIYQASTLENGVPSRFSGSGSGTEFILTISSLQPDDFATYYCQHYNVLWTFGQGTKVEIK	ng/mL	39.1
mAb #33 (antibody, V domains shown, also called mAb ID: 33; Mab No. 33) VH: DVQLVESGGGLVQPGGPSRLSCSASRFTFSNYAMYWVRQAPGKGLEYVSSISSDGGSTYYAESVKGRFTISRDNSKNTLYLQMRSLRAEDAAVYYCVTDVLRLPYSTGWSPGDFIYWGQGTLVTVSS VL: DIQMTQSPSILYASVGDRVTITCRASQSVSSWLAWYQQKPGKVPKLLIYQASTLENGVPSRFSGSGSGTEFILTISSLQPDDFATYYCQHYNVLWTFGQGTKVEI	ng/mL	2.4
mAb #41 (antibody, V domains shown, also called mAb ID: 41; Mab No. 41) VH: EVQLVESGGGPVQPGGSLKLSCAASGFTFSNYEMYWVRQAPGKGLEWVSYISTSPAITYYADSVRGRFTISRDNAKSSLYLHMNSLRAEDTAVYYCATISHQQFSSGWNAWFDPWGQGTLVTVSS VL: NFMLTQPHSVSESPGKTVTISCTGSSGSIASNYVQWYRQRPGSAPTTVIYENYQRPSGVPARFSGSIDRSSNSASLTISGLQTDDEADYYCQSYDNNNLWVFGGGTKLTVL	ng/mL	0.6
